All figures here come from ChEMBL document CHEMBL1135594.

target: UniProt P05227; experiment: Inhibition of beta-hematin formation
Sequence (P05227 whole entry): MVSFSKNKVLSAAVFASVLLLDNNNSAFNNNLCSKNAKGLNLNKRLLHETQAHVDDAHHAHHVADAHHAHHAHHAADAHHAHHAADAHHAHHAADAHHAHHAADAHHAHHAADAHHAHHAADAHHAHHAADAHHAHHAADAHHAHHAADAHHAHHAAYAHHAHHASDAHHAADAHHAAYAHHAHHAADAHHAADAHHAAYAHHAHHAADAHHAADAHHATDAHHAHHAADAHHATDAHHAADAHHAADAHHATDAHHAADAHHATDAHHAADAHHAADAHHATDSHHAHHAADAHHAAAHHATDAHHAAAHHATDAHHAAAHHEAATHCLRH
REPORTED PROPERTY: IC50 (µM)
Please reply with the bare figure in µM and do not write the unit itself.

Would you please look over these solved cases?
STRUCTURE SMILES | STUDY TARGET | IC50 [µM]
CC(C)(C)NCCNc1ccnc2cc(Cl)ccc12 | UniProt P05227 | 70
Clc1ccc2c(NCCN3CCCC3)ccnc2c1 | UniProt P05227 | 78

-- ask Let me know recorded IC50 for CC(C)(C)NCCNc1ccnc2cc(C(F)(F)F)ccc12 , thanks.
-- reply 71

-- ask // fetch IC50 given entry Clc1ccc2c(NCCN3CCOCC3)ccnc2c1
-- reply 102

-- ask Note down IC50 recorded for Clc1ccc2c(NCCN3CCCCC3)ccnc2c1
-- reply 86

-- ask Answer with the recorded IC50 for the compound listed here: FC(F)(F)c1ccc2c(NCCN3CCCCC3)ccnc2c1
-- reply 65
